procedure_text: Cytotoxicity against epithelial cancer cells (unknown origin)
Assay type: functional, cell-based
run_parameters: Cancer cell lines
Would you kindly list IC50 for each of these compounds?
Reply with a number, then the unit it belongs to.

Quick note, IC50 for `c1c[n+](C23CC4CC(CC(C4)C2)C3)cn1C12CC3CC(CC(C3)C1)C2` landed at 1 µM

get_value(item= `CC(=O)Oc1ccc(Cn2cc[n+](Cc3ccccc3)c2C)cc1` , readout=IC50) returns 28 µM

Kindly note the recorded IC50 for `Cc1n(Cc2ccccc2)cc[n+]1Cc1ccccc1C(F)(F)F` , which is 35 µM

The compound identified as `c1ccc(Cc2cn(Cc3ccccc3)c[n+]2Cc2ccccc2)cc1` registered its IC50 at 20 µM

The compound listed as `Cc1ccc(C[n+]2ccn(Cc3ccccc3)c2)cc1` shows IC50 equal to 30 µM

The recorded IC50 for entry `c1ccc(CCn2cc[n+](CCc3ccccc3)c2)cc1` equals 20 µM

---

procedure_text: Cytotoxicity against CCO cells
Format: functional, cell-based
run_parameters: Ictalurus punctatus
Please go through the items and note down their EC50.

Recorded result, `CCCCCCCCn1cc[n+](C)c1.O=S(=O)([N-]S(=O)(=O)C(F)(F)F)C(F)(F)F` , EC50: < 100 nM

For reference, reported EC50 for `CCCCCCCn1cc[n+](C)c1.O=S(=O)([N-]S(=O)(=O)C(F)(F)F)C(F)(F)F` stands at < 100 nM

Entry under test: `CCCn1cc[n+](C)c1` . Its EC50 was > 10000 nM

---

procedure_text: Cytotoxicity against gastric cancer cells (unknown origin)
Type: functional, cell-based
run_parameters: Cancer cell lines, Stomach
For each of the molecules below, state its IC50.
Give the value in µM but do not write µM after it.

Per the record, `Cc1n(Cc2ccccc2)cc[n+]1Cc1ccccc1` has IC50 of 35

Entry `CC(=O)Oc1ccc(Cn2cc[n+](-c3c(C)cc(C)cc3C)c2)cc1` ; IC50 = 10

Attribution: ChEMBL document CHEMBL3259635
